- system-under-test: Calpain-2 catalytic subunit (Sus scrofa, UniProt P43367)
- Sequence (P43367 whole entry): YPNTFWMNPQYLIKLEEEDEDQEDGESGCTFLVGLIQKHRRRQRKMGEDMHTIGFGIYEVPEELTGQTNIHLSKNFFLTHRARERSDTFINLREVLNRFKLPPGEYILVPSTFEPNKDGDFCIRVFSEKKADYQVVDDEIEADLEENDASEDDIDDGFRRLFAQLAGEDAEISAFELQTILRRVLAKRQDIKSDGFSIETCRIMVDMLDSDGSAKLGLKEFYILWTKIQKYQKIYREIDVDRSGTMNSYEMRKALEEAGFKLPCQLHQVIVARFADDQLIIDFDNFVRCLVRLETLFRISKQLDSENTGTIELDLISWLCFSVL
- method-notes: m-calpain protease blockers, concentration series – biochemical, fluorogenic peptide substrate, dose response (AID 1420)
- Format: functional
measured-property: IC50

structure-notation: COc1cccc(NC(=O)CN(C)CC(=O)Nc2ccc(Cl)cc2[N+](=O)[O-])c1
result: 24 µM (not active)

structure-notation: CSc1cccc(NC(=O)CSc2ccc(Cl)cc2)c1
result: 8.93 µM (not active)

structure-notation: Cc1c(C(=O)N(Cc2ccccc2)Cc2cccs2)cnn1-c1ccc(Cl)cc1
result: 4.66 µM (not active)

structure-notation: CC(C)C[C@H](NC(=O)c1[nH]cnc1C(=O)NC1CCN(C(=O)OC(C)(C)C)CC1)C(=O)OCc1ccccc1
result: 4.9 µM (not active)

====

- System: BJ
- method-notes: cells
- Assay type: functional, cell-based
- condition-summary: Homo sapiens
The source made the active and inactive calls.
measured-property: EC50

structure-notation: COc1ccccc1C(=O)Nc1nc2ccccc2[nH]1
result: 0.607 µM (inconclusive)
--
structure-notation: Cc1nn2cc(-c3cccc(Cl)c3)cnc2c1Br
result: 68.2 µM (active)
--
structure-notation: O=[N+]([O-])c1c(Nc2cccc(O)c2)cc(Cl)c2nonc12
result: 5.62 µM (inconclusive)

====

- method-notes: Luminescence Cell-Based Dose Response HTS to Identify Activators of Luciferase Translation or Activity in H4 […] Cells. [Related pubchem assays: 1829 (Project Summary), 1814 (Primary HTS)]
- Assay type: functional
The source made the active and inactive calls.
measured-property: EC50

compound: c1ccc2[nH]c(-c3cscn3)nc2c1 [THIABENDAZOLE]
measured-property: EC50
result: 18.7 µM (active)
--
compound: CC(C)NC(=O)c1[nH]nc2c1CCc1ccccc1-2
measured-property: EC50
result: 56 µM (active)
--
compound: O=C(Cc1ccccc1)NC(=S)Nc1ccc2oc(-c3ccccc3F)nc2c1
measured-property: EC50
result: 3.01 µM (active)
--
compound: O=[N+]([O-])c1ccc(/C=C2\CCC(C3=CCCC3)=C2N2CCOCC2)cc1
measured-property: EC50
result: > 120 µM (not active)
--
compound: Oc1ccc(-c2csc(-c3ccccc3)n2)cc1O
measured-property: EC50
result: > 120 µM (not active)
--
compound: CCCc1ccc2oc(C(=O)N3CCC[C@H]3CO)c(C)c2c1
measured-property: EC50
result: 1.11 µM (active)

====

Known EC50 of a selection of compounds
- system-under-test: RNA-binding protein pos-1 (Caenorhabditis elegans)
- Sequence (G5EF15 whole entry, the tested form may be a part): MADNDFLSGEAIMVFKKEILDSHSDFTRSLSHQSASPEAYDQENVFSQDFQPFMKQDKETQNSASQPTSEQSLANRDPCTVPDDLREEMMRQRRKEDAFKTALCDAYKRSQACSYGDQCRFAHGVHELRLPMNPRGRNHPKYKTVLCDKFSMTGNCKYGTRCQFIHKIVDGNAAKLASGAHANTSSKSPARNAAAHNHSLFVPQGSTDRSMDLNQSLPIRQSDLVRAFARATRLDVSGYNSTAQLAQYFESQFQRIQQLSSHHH
- method-notes: disruptors of C. elegans POS-1 RNA interaction – biochemical, fluorescence polarization, dose response (AID 1964);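 also: purified POS-1 fused to maltose binding protein made in E. coli; potency of compounds blocking POS-1 binding to fluorescent RNA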
Activity calls are given as the source filed them.

compound: CCOC(=O)c1cc(-c2ccccc2)sc1NC(=S)Nc1cc(C)ccn1
system-under-test: RNA-binding protein pos-1 (Caenorhabditis elegans)
EC50: 11.1 µM (inconclusive)

compound: COc1ccc(/C(C)=N/Nc2nc3ccccc3nc2C)cc1OC
system-under-test: RNA-binding protein pos-1 (Caenorhabditis elegans)
EC50: 5.07 µM (inconclusive)

compound: CSc1nc(S)c2[nH]c(S)nc2n1
system-under-test: RNA-binding protein pos-1 (Caenorhabditis elegans)
EC50: 5.15 µM (active)

compound: N#Cc1c(N)n(-c2cccc(C(=O)O)c2)c2nc3ccccc3nc12
system-under-test: RNA-binding protein pos-1 (Caenorhabditis elegans)
EC50: > 300 µM (not active)

compound: NC1=CC(=O)c2cccc3cccc1c23
system-under-test: RNA-binding protein pos-1 (Caenorhabditis elegans)
EC50: 7.46 µM (inconclusive)

compound: COC(=O)Cn1cc(/C=C2\C(=O)NC(=O)N(c3ccc(OC)cc3)C2=O)c2ccccc21
system-under-test: RNA-binding protein pos-1 (Caenorhabditis elegans)
EC50: 69.1 µM (active)

compound: COc1ccc(/C=C2\CCCc3c2nc2ccccc2c3C(=O)O)cc1OC
system-under-test: RNA-binding protein pos-1 (Caenorhabditis elegans)
EC50: 9.28 µM (active)

compound: CC1=NN(c2cccc(C(=O)O)c2)C(=O)/C1=C\C=C\c1ccco1
system-under-test: RNA-binding protein pos-1 (Caenorhabditis elegans)
EC50: 19.9 µM (active)

compound: COC(=O)CCCC1=CC2=CC(=O)C(C)(OC(=O)C3CCCC3)C(=O)C2=CO1 (stereo unspecified)
system-under-test: RNA-binding protein pos-1 (Caenorhabditis elegans)
EC50: 23.3 µM (active)

compound: O=C(N/N=C/C=C/c1ccc([N+](=O)[O-])cc1)c1cccs1
system-under-test: RNA-binding protein pos-1 (Caenorhabditis elegans)
EC50: > 300 µM (not active)

compound: Cc1ccc2c(c1)N/C(=C\C(=O)CC(C)C)C(=O)O2
system-under-test: RNA-binding protein pos-1 (Caenorhabditis elegans)
EC50: > 300 µM (not active)

====

- system-under-test: Corticotropin-releasing factor receptor 2/Corticotropin-releasing factor-binding protein (Homo sapiens, UniProt P24387+Q13324)
- Sequence (Q13324 whole entry): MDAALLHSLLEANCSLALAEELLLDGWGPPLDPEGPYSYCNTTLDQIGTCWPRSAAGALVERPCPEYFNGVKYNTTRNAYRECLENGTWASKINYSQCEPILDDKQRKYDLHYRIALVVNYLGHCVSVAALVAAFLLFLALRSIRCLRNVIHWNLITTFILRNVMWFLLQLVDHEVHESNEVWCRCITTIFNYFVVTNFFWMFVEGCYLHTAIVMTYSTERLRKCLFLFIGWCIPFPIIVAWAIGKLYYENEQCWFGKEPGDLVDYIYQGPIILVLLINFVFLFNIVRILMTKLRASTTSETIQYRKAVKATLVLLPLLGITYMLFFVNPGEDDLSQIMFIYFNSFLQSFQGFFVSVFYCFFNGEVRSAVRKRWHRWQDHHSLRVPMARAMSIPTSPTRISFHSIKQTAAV
- Sequence (P24387 whole entry): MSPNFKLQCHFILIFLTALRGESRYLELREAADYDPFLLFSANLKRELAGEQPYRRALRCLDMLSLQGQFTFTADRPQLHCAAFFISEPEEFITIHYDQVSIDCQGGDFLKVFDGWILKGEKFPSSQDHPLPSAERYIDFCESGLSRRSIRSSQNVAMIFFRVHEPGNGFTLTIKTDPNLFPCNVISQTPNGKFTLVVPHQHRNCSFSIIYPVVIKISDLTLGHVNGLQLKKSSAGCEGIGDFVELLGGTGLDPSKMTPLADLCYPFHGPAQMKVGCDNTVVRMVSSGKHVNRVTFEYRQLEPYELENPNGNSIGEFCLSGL
- method-notes: activators of CRF receptor 2 with binding protein – uHTS hits, confirmation (AID 602473)
- Type: functional
- condition-summary: read-out: EC50_Mean
Active and inactive are the calls of the source.

structure-notation: COc1ccc(S(=O)(=O)N(C)CC(=O)NC2CCCCC2)cc1OC
EC50: > 53 µM (inactive)
--
structure-notation: COC(=O)Cn1cc(/C=C2\C(=O)NC(=O)N(c3ccc(OC)cc3)C2=O)c2ccccc21
EC50: 5.57 µM (active)
--
structure-notation: CC(C)(C)NC(=O)/C(=C/c1ccccc1F)NC(=O)c1ccc([N+](=O)[O-])cc1
EC50: > 53 µM (inactive)

====

- system-under-test: Cytochrome P450 2D6 (Homo sapiens);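 also: CYP2D6 member of a cytochrome P450 panel assay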
- Sequence (P10635 whole entry): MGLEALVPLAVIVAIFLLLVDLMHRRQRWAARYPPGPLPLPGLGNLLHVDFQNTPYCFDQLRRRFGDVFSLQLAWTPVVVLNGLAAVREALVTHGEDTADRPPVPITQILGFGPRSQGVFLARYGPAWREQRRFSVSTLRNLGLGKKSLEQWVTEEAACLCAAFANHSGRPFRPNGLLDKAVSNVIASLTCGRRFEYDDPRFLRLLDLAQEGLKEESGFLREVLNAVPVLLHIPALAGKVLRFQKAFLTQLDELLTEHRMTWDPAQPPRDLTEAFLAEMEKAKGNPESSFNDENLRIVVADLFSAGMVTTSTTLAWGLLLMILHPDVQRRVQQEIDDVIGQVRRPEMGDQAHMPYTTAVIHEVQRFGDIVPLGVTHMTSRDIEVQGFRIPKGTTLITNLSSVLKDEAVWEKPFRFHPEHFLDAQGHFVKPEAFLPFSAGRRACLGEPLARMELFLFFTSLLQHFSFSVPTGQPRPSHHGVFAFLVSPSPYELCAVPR

molecule: O=C(Oc1ccccc1)N1CCC2(CCCN(Cc3ccccc3)C2)CC1
AC50: 10 µM (inconclusive)
--
molecule: COc1cccc(C(C(=O)Nc2ccc(F)cc2)N(C(=O)Cn2nnc3ccccc32)C2CC2)c1 (stereo not drawn)
AC50: 25.1 µM (inconclusive)
--
molecule: COC(=O)c1ccc(C(NC(=O)c2ccco2)[C@]2(C)C[C@H]2C2CCCCC2)cc1 (stereo partly drawn)
AC50: 12.6 µM (inconclusive)
--
molecule: COc1ccccc1C(=O)NCCn1cc(SCC(=O)Nc2nnc(C)s2)c2ccccc21
AC50: 28.2 µM (inconclusive)
--
molecule: CS(=O)(=O)Nc1cccc(-c2ccc3ncnc(Nc4ccc(F)cc4)c3c2)c1
AC50: 39.8 µM (inconclusive)
--
molecule: COc1ccc2[nH]cc(CCNc3cc(-c4cccc(C#N)c4)ncn3)c2c1
AC50: 20 µM (inconclusive)
--
molecule: CC1CN(C2CCN(C(=O)c3cccc(Cl)c3)CC2)CC(C)O1 (stereo not drawn)
AC50: 0.891 µM (inconclusive)
--
molecule: Cc1nn(C(=O)c2cccnc2)c(C)c1Sc1ccc(Br)cc1
AC50: 25.1 µM (inconclusive)

====

- system-under-test: Aminopeptidase N (Plasmodium falciparum FcB1/Columbia, UniProt O96935)
- Sequence (O96935 whole entry): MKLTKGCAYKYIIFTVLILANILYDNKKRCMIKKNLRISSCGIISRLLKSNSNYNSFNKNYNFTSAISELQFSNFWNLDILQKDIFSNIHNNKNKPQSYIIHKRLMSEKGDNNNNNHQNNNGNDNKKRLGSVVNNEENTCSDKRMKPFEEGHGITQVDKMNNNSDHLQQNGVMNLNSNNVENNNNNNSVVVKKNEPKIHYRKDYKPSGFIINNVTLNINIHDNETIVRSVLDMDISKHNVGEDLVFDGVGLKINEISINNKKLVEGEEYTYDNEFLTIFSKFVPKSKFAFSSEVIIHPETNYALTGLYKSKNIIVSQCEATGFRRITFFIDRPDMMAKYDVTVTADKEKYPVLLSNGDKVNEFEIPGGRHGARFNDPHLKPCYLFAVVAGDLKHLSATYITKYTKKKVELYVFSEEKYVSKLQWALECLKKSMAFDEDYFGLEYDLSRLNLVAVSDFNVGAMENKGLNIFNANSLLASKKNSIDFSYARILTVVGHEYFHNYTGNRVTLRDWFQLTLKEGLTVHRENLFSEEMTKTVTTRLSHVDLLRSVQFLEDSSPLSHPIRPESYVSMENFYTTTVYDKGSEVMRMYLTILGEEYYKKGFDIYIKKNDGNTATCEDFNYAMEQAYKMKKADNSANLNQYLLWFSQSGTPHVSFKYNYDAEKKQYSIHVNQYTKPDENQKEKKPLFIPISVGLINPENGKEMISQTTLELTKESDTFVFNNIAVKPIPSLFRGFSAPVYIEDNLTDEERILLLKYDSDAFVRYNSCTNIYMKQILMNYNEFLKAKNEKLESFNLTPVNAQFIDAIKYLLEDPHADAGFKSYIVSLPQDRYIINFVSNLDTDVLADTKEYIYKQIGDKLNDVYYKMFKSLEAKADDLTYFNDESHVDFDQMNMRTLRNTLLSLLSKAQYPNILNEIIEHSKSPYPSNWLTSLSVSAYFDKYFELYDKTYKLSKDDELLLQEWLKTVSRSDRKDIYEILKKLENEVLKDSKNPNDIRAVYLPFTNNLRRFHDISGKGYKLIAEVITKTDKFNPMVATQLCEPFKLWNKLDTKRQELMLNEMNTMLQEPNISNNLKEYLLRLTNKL
- method-notes: malaria alanyl aminopeptidase activity blockers – biochemical, fluorogenic H-Leu-NHMec substrate, 1536-well (AID 1445)
- Parameters: species or system Plasmodium falciparum 3D7, 3D7
Active and inactive are the calls of the source.
Known IC50 of a selection of molecules
measured-property: IC50

molecule: Cc1ccc(S(=O)(=O)Nc2nc(C)c(C(=O)N/N=C/c3ccccc3)s2)cc1
system-under-test: Aminopeptidase N (Plasmodium falciparum FcB1/Columbia, UniProt O96935)
result: 61.9 µM (active)
//
molecule: CCCCN(CC)C(=O)CSc1nc2c(sc(=S)n2-c2ccc(OCC)cc2)c(=O)[nH]1
system-under-test: Aminopeptidase N (Plasmodium falciparum FcB1/Columbia, UniProt O96935)
result: 38.8 µM (active)
//
molecule: Oc1ccccc1N=Nc1ccccc1O
system-under-test: Aminopeptidase N (Plasmodium falciparum FcB1/Columbia, UniProt O96935)
result: 22.1 µM (active)
//
molecule: O=C(O)C(Cc1ccccc1)/N=C/c1c(O)oc2ccccc2c1=O (centres undefined)
system-under-test: Aminopeptidase N (Plasmodium falciparum FcB1/Columbia, UniProt O96935)
result: 20.6 µM (active)
